# System: HDAC (Mouse Liver Extract)
# Construct: Mouse liver enzyme (10 mg/ml) was diluted 1:6 with HDAC buffer
# protocol_notes: HDAC inhibition assay using Boc-Lys(Ac)-AMC substrate, mouse liver enzyme
# Assay type: biochemical
# stated_conditions: 1 μM
attribute_measured: HDAC Inhibition % (1 μM) (%)

Here is how some compounds turned out for HDAC Inhibition % (1 μM).
Ask | Sample `Nc1ccccc1NC(=O)/C=C/c1ccc(/C=C(/C(=O)NC2CC2)c2ccc(F)c(F)c2)cc1` — what was its HDAC Inhibition % (1 μM)?
Reply | 12.0

Ask | Sample `COc1cccc(/C(=C\c2ccc(C(=O)Nc3ccccc3N)cc2)C(=O)NC2CC2)c1` — what was its HDAC Inhibition % (1 μM)?
Reply | 39.1

Ask | Sample `Nc1ccccc1NC(=O)c1ccc(/C=C(/C(=O)NC2CC2)c2cccc(F)c2)cc1` — what was its HDAC Inhibition % (1 μM)?
Reply | 45.7

Ask | Sample `O=C(/C=C/c1ccc(/C=C(/C(=O)NC2CC2)c2ccccc2)cc1)NCCCCCC(=O)NO` — what was its HDAC Inhibition % (1 μM)?
Reply | 93.2

Ask | Sample `Nc1ccccc1NC(=O)c1ccc(/C=C(\C(=O)NC2CC2)c2ccc(F)cc2)cc1` — what was its HDAC Inhibition % (1 μM)?
Reply | 8.6

Ask | Sample `COc1ccc(/C(=C\c2ccc(/C=C/C(=O)Nc3ccccc3N)cc2)C(=O)NC2CC2)cc1OC` — what was its HDAC Inhibition % (1 μM)?
Reply | 12.3

Ask | Sample `O=C(CCCCCNC(=O)c1ccc(/C=C(/C(=O)NC2CC2)c2ccccc2)cc1)NO` — what was its HDAC Inhibition % (1 μM)?
Reply | 87.8

Ask | Sample `Cc1ccc(/C(=C\c2ccc(/C=C/C(=O)NCCCCCC(=O)NO)cc2)C(=O)NC2CC2)cc1` — what was its HDAC Inhibition % (1 μM)?
Reply | 97.0

Ask | Sample `O=C(CCCCCCC(=O)Nc1ccc(/C=C(/C(=O)NC2CC2)c2ccc(F)cc2)cc1)NO` — what was its HDAC Inhibition % (1 μM)?
Reply | 91.5

Ask | Sample `COc1ccc(/C(=C\c2ccc(/C=C/C(=O)NCc3ccc(C(=O)NO)cc3)cc2)C(=O)NC2CC2)cc1` — what was its HDAC Inhibition % (1 μM)?
Reply | 97.6

I. Nc1ccccc1NC(=O)/C=C/c1ccc(/C=C(/C(=O)N2CCOCC2)c2ccc(F)cc2)cc1
II. O=C(NC1CC1)/C(=C/c1ccc(C(=O)NCc2ccc(C(=O)NO)cc2)cc1)c1cccc(F)c1
Ask | Consider entries I and II . Which has the numerically lower HDAC Inhibition % (1 μM)? // output: label of the selected item
Reply | I
